Hi there, I'd appreciate the recorded pEC50 for every entry that follows.
# Subject Of Test: UniProt:P13569
# Reported Conditions: enteroid cells incubated with test compound 18-24 hours; acute 10 μM forskolin and 300 nM Compound III
pEC50: −log10 of the molar value.

Lookup: Look up and state reported pEC50 for CN1CCCCC2CN(c3nc(-n4ccc(OCCC5(C(F)(F)F)CC5)n4)ccc3C(=O)NS(=O)(=O)c3ccc1nc3)C(C)(C)C2 (stereo not drawn)
Found: > 6.00

Lookup: Look up and state reported pEC50 for CC1(C)CC2CCCn3ccc(n3)S(=O)(=O)NC(=O)c3ccc(-n4ccc(OCCC5(C(F)(F)F)CC5)n4)nc3N1C2 (stereo not drawn)
Found: > 6.00

Lookup: Look up and state reported pEC50 for CC1(C)C[C@@H]2CCCNc3cccc(n3)S(=O)(=O)NC(=O)c3ccc(-n4ccc(OCCCC5(C(F)(F)F)CC5)n4)nc3N1C2
Found: > 6.00

----------
# Subject Of Test: CFTR-mediated chloride transport (Homo sapiens, UniProt P13569)
# Sequence (P13569 whole entry, looked up): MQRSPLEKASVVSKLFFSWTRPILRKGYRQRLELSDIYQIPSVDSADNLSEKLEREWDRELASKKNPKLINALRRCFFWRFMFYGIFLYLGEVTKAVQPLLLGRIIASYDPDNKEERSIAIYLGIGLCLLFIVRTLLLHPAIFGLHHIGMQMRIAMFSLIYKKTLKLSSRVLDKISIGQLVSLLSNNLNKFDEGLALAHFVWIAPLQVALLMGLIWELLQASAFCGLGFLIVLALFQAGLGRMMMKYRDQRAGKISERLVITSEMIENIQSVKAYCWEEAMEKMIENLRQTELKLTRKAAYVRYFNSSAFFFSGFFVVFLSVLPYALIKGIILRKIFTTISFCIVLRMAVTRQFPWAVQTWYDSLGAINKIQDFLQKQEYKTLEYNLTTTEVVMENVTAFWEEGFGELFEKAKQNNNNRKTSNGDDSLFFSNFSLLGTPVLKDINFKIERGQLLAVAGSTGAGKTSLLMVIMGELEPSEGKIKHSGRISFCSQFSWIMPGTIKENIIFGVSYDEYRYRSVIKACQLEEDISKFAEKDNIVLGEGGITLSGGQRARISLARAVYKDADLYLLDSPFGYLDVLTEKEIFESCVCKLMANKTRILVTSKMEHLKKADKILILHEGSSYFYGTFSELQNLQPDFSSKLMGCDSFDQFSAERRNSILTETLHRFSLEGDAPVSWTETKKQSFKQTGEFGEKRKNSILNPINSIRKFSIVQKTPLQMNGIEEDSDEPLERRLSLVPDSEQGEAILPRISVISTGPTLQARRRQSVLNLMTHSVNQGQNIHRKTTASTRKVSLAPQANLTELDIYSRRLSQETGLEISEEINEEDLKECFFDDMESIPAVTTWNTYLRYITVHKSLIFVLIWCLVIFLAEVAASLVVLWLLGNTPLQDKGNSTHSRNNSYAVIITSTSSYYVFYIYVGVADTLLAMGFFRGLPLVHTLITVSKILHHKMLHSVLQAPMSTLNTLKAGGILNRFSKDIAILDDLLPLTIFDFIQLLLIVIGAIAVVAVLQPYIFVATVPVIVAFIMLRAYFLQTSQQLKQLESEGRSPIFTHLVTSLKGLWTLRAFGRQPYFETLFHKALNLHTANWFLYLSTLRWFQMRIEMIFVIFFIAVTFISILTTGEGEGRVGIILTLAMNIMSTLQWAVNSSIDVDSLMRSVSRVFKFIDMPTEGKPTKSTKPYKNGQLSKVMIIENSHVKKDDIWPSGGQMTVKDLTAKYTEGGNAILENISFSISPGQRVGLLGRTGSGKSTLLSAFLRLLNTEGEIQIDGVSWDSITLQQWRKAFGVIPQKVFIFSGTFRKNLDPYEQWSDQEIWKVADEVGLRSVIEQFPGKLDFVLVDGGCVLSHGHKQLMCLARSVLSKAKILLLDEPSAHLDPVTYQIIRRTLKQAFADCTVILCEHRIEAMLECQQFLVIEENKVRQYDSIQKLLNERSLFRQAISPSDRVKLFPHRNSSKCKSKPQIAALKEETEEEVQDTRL
# Assay type: cell-based
# Reported Conditions: enteroid cells incubated with test compound 18-24 hours; acute 10 μM forskolin and 300 nM Compound III; % of chloride transport with 3 μM Compound A, 3 μM Compound II and 300 nM acute Compound III triple combination control
Readout Type: Max. Activity

Known Max. Activity results, listed for orientation:
Lookup: Enter measured Max. Activity, system CFTR-mediated chloride transport (Homo sapiens, UniProt P13569), for the molecule shown: CC1(C)C[C@H]2CCCNc3ccc(cn3)S(=O)(=O)NC(=O)c3ccc(-n4ccc(OCCC5(C(F)(F)F)CC5)n4)nc3N1C2 (single isomer, unassigned) [Compound 72]
Found: + (+ is <30%)

Lookup: Enter measured Max. Activity, system CFTR-mediated chloride transport (Homo sapiens, UniProt P13569), for the molecule shown: CN1CCCCC2CN(c3nc(-n4ccc(OCCC5(C(F)(F)F)CC5)n4)ccc3C(=O)NS(=O)(=O)c3ccc1nc3)C(C)(C)C2 (stereo not shown) [Compound 132]
Found: ++ (++ is 30-60%)

Lookup: Enter measured Max. Activity, system CFTR-mediated chloride transport (Homo sapiens, UniProt P13569), for the molecule shown: CC1(C)C[C@H]2CCNc3cccc(n3)S(=O)(=O)NC(=O)c3ccc(-n4ccc(OCCC5(C(F)(F)F)CC5)n4)nc3N1C2 (single isomer, unassigned) [Compound 27]
Found: +++ (+++ is >60%)

Lookup: Enter measured Max. Activity, system CFTR-mediated chloride transport (Homo sapiens, UniProt P13569), for the molecule shown: CC1(C)CC2CCCNc3cccc(n3)S(=O)(=O)NC(=O)c3ccc(-n4ccc(OCCC(C5CC5)C5CC5)n4)nc3N1C2 (stereo not shown) [Compound 43]
Found: +++ (+++ is >60%)

Others:
Lookup: Enter measured Max. Activity, system CFTR-mediated chloride transport (Homo sapiens, UniProt P13569), for the molecule shown: CC(C)(C)CCC[C@H]1CCN(c2ccc3c(n2)N2C[C@@H](CCCNc4cccc(n4)S(=O)(=O)NC3=O)CC2(C)C)C1=O (single isomer, unassigned) [Compound 145]
Found: +++ (+++ is >60%)

----------
# Subject Of Test: CFTR-mediated chloride transport (Homo sapiens, UniProt P13569)
# Assay type: cell-based
# Reported Conditions: enteroid cells incubated with test compound 18-24 hours; acute 10 μM forskolin and 300 nM Compound III; % of chloride transport with 3 μM Compound A, 3 μM Compound II and 300 nM acute Compound III triple combination control
# Protocol: Base medium (ADF+++) consisted of Advanced DMEM/Ham's F12, 2 mM Glutamax, 10 mM HEPES, […] penicillin/streptomycin. […] Enteroid cells were incubated with test compound in IEMM for 18-24 hours at 37° C., 95% humidity and 5% CO2. […] Chloride transport was initiated by addition of Chloride Free Dye Stimulation Solution and the fluorescence signal was read for 15 min. […]
Readout Type: Max. Activity

Lookup: Enter measured Max. Activity, system CFTR-mediated chloride transport (Homo sapiens, UniProt P13569), for the molecule shown: CC1(C)CC2CN1c1nc(-n3ccc(OCCC4(C(F)(F)F)CC4)n3)ccc1C(=O)NS(=O)(=O)c1ccn(n1)CCO2 (racemic)
Found: ++ (++ is 30-60%)

Lookup: Enter measured Max. Activity, system CFTR-mediated chloride transport (Homo sapiens, UniProt P13569), for the molecule shown: CC1(C)CC2CCCOc3ccc(cc3)S(=O)(=O)NC(=O)c3ccc(-n4ccc(OCCC5(C(F)(F)F)CC5)n4)nc3N1C2 (racemic)
Found: ++ (++ is 30-60%)

Lookup: Enter measured Max. Activity, system CFTR-mediated chloride transport (Homo sapiens, UniProt P13569), for the molecule shown: CC1(C)CC2CCCCNc3cccc(n3)S(=O)(=O)NC(=O)c3ccc(-n4ccc(OCCC5(C(F)(F)F)CC5)n4)nc3N1C2 (racemic)
Found: ++ (++ is 30-60%)

----------
# Subject Of Test: CFTR-mediated chloride transport (Homo sapiens)
# Reported Conditions: enteroid cells incubated with test compound 18-24 hours; acute 10 μM forskolin and 300 nM Compound III
Readout Type: EC50

Lookup: Look up and state reported EC50 for CC1(C)C[C@H]2CCCCNc3cccc(n3)S(=O)(=O)NC(=O)c3ccc(-n4cc(OCCC5(C(F)(F)F)CC5)cn4)nc3N1C2 (single isomer, unassigned) [Compound 82]
Found: > 3000 nM

Lookup: Look up and state reported EC50 for CC1(C)C[C@H]2CCCn3ccc(n3)S(=O)(=O)NC(=O)c3ccc(N4CC[C@H](CCCC5(C(F)(F)F)CC5)C4=O)nc3N1C2 (single isomer, unassigned) [Compound 182]
Found: < 1000 nM

Lookup: Look up and state reported EC50 for Cc1ccc2nc1NCCC[C@H]1CN(c3nc(-n4ccc(OCCC5(C(F)(F)F)CC5)n4)ccc3C(=O)NS2(=O)=O)C(C)(C)C1 (single isomer, unassigned) [Compound 114]
Found: > 3000 nM

Lookup: Look up and state reported EC50 for CC1(C)C[C@H]2CCNc3cccc(n3)S(=O)(=O)NC(=O)c3ccc(-n4ccc(OCC5(C(F)(F)F)CC5)n4)nc3N1C2 (single isomer, unassigned) [Compound 5]
Found: < 1000 nM

Lookup: Look up and state reported EC50 for CC(C)(C)CC[C@H]1CCN(c2ccc3c(n2)N2C[C@@H](CCCNc4cccc(n4)S(=O)(=O)NC3=O)CC2(C)C)C1=O (single isomer, unassigned) [Compound 126]
Found: < 1000 nM

----------
Hi there, I'd appreciate the recorded pEC50 for every entry that follows.
# Subject Of Test: CFTR-mediated chloride transport (Homo sapiens)
# Assay type: cell-based
# Reported Conditions: enteroid cells incubated with test compound 18-24 hours; acute 10 μM forskolin and 300 nM Compound III
pEC50: −log10 of the molar value.

Lookup: Look up and state reported pEC50 for CC(C)(C)CCCO[C@H]1CCN(c2ccc3c(n2)N2C[C@@H](CCCNc4cccc(n4)S(=O)(=O)NC3=O)CC2(C)C)C1=O (single isomer, unassigned) [Compound 246]
Found: > 6.00

Lookup: Look up and state reported pEC50 for CC1(C)CC2CCCCc3cccc(n3)S(=O)(=O)NC(=O)c3ccc(-n4ccc(OCCC5(C(F)(F)F)CC5)n4)nc3N1C2 (stereo not drawn)
Found: > 6.00

Lookup: Look up and state reported pEC50 for CC1(C)C[C@@H]2CN1c1nc(-n3ccc(OCCC4C5(CC5)C45CC5)n3)ccc1C(=O)NS(=O)(=O)c1cccc(n1)NCCO2 (single isomer, unassigned) [Compound 197]
Found: > 6.00

----------
# Subject Of Test: CFTR-mediated chloride transport (Homo sapiens)
# Format: cell-based
# Reported Conditions: enteroid cells incubated with test compound 18-24 hours; acute 10 μM forskolin and 300 nM Compound III; % of chloride transport with 3 μM Compound A, 3 μM Compound II and 300 nM acute Compound III triple combination control
Readout Type: Max. Activity

Known Max. Activity results, listed for orientation:
Lookup: Look up and state reported Max. Activity for [2H]C([2H])(CCOc1ccn(-c2ccc3c(n2)N2C[C@@H](CCCNc4cccc(n4)S(=O)(=O)NC3=O)CC2(C)C)n1)C1(C(F)(F)F)CC1
Found: +++ (+++ is >60%)

Lookup: Look up and state reported Max. Activity for Cc1c2cnn1CCCC1CN(c3nc(-n4ccc(OCC(C)(C)C(F)(F)F)n4)ccc3C(=O)NS2(=O)=O)C(C)(C)C1 (single isomer, unassigned) [Compound 289]
Found: ++ (++ is 30-60%)

Lookup: Look up and state reported Max. Activity for [2H]C([2H])(COc1ccn(-c2ccc3c(n2)N2C[C@@H](CCCNc4cccc(n4)S(=O)(=O)NC3=O)CC2(C)C)n1)CC1(C(F)(F)F)CC1
Found: +++ (+++ is >60%)

Lookup: Look up and state reported Max. Activity for Cc1ccc2nc1S(=O)(=O)NC(=O)c1ccc(-n3ccc(OCCC4(C(F)(F)F)CC4)n3)nc1N1CC(CCCN2)CC1(C)C (centres unmarked)
Found: +++ (+++ is >60%)

Lookup: Look up and state reported Max. Activity for CC1(C)C[C@@H]2CCCNc3cccc(n3)S(=O)(=O)NC(=O)c3ccc(N4CC[C@H](OCCC5(C(F)(F)F)CC5)C4=O)nc3N1C2 (single isomer, unassigned) [Compound 173]
Found: +++ (+++ is >60%)

Others:
Lookup: Look up and state reported Max. Activity for CC(C)(C)CCCO[C@H]1CCN(c2ccc3c(n2)N2C[C@@H](CCCNc4cccc(n4)S(=O)(=O)NC3=O)CC2(C)C)C1=O (single isomer, unassigned) [Compound 246]
Found: ++ (++ is 30-60%)

Lookup: Look up and state reported Max. Activity for CC1(C)C[C@@H]2CN1c1nc(-n3ccc(OCCC4C5(CC5)C45CC5)n3)ccc1C(=O)NS(=O)(=O)c1cccc(n1)NCCO2 (single isomer, unassigned) [Compound 196]
Found: ++ (++ is 30-60%)

Lookup: Look up and state reported Max. Activity for CC1(C)C[C@@H]2CCCNc3cccc(n3)S(=O)(=O)NC(=O)c3ccc(-n4ccc(OC[C@@H](O)C5C6(CC6)C56CC6)n4)nc3N1C2 (single isomer, unassigned) [Compound 294]
Found: +++ (+++ is >60%)

Lookup: Look up and state reported Max. Activity for CC1(C)C[C@@H]2CCCNc3cccc(n3)S(=O)(=O)NC(=O)c3ccc(-n4ccc(OCCC5C(C)(C)C5(C)C)n4)nc3N1C2
Found: +++ (+++ is >60%)

Lookup: Look up and state reported Max. Activity for Cc1cc2nn1CCC[C@H]1CN(c3nc(-n4ccc(OCCC5(C(F)(F)F)CC5)n4)ccc3C(=O)NS2(=O)=O)C(C)(C)C1 (single isomer, unassigned) [Compound 151]
Found: +++ (+++ is >60%)
